- experimental.system: rCB1 (Rattus norvegicus, UniProt P20272)
- Sequence (P20272 whole entry): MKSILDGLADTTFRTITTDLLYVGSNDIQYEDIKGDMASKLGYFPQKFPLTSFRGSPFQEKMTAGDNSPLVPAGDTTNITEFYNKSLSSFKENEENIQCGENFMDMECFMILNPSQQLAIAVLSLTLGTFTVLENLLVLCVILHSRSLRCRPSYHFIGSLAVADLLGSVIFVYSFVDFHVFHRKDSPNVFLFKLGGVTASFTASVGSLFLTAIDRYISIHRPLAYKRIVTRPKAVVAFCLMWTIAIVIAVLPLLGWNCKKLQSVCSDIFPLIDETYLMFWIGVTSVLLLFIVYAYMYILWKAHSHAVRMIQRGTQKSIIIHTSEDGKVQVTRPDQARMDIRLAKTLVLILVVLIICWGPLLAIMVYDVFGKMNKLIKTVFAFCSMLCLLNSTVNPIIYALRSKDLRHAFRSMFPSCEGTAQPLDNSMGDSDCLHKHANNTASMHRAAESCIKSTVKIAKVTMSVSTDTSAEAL
- assay.overview: Radioligand binding
- conditions.used: ratio Ki(trans)/Ki(cis) at CB1
The reader will find reported CB1 trans/cis ratio values listed item by item below.
measure: CB1 trans/cis ratio

- Cc1c(C(=O)NCc2ccccc2/N=N/c2ccccc2)nn(-c2ccc(Cl)cc2Cl)c1-c1ccc(Cl)cc1 [16c]: 1.58
- Cc1c(C(=O)NCc2ccc(/N=N/c3ccc4c(c3)COC4)cc2)nn(-c2ccc(Cl)cc2Cl)c1-c1ccc(Cl)cc1 [16d]: 2.72
- Cc1c(C(=O)NN2CCCCC2)nn(-c2ccc(Cl)cc2Cl)c1/N=N/c1ccc(Cl)cc1Cl [9c]: 1.11
- Cc1cccc(/N=N/c2c(C)c(C(=O)NN3CCCCC3)nn2-c2ccc(Cl)cc2Cl)c1 [9e]: 0.60
- Cc1ccccc1/N=N/c1c(C)c(C(=O)NN2CCCCC2)nn1-c1ccc(Cl)cc1Cl [9d]: 0.76
- Cc1c(C(=O)NN2CCCCC2)nn(-c2ccc(Cl)cc2Cl)c1/N=N/c1ccccc1 [9a]: 1.0
- Cc1c(C(=O)NN2CCCCC2)nn(-c2ccc(Cl)cc2Cl)c1/N=N/c1cccc(Cl)c1Cl [9b]: 0.83
- Cc1c(C(=O)NCc2cccc(/N=N/c3ccccc3)c2)nn(-c2ccc(Cl)cc2Cl)c1-c1ccc(Cl)cc1 [16b]: 1.23
- Cc1c(/N=N/c2ccccc2)nn(-c2ccc(Cl)cc2Cl)c1-c1ccc(Cl)cc1 [14a]: 2.16

###

- experimental.system: hCB2 (Homo sapiens)
- assay.overview: Radioligand binding
- conditions.used: trans photoisomer (454 nm), hCB2-HEK membranes
measure: [3H]CP55950 displ at 10 μM (CB2) (%)

• Cc1c(C(=O)NN2CCCCC2)nn(-c2ccc(Cl)cc2Cl)c1/N=N/c1ccccc1 = 51
• Cc1c(/N=N/c2cccc(Cl)c2Cl)nn(-c2ccc(Cl)cc2Cl)c1-c1ccc(Cl)cc1 [14b] = 31
• Cc1c(C(=O)NCc2cccc(/N=N/c3ccccc3)c2)nn(-c2ccc(Cl)cc2Cl)c1-c1ccc(Cl)cc1 [16b] = 14
• Cc1c(C(=O)NN2CCCCC2)nn(-c2ccc(Cl)cc2Cl)c1/N=N/c1ccc(Cl)cc1Cl = 62
• Cc1ccccc1/N=N/c1c(C)c(C(=O)NN2CCCCC2)nn1-c1ccc(Cl)cc1Cl = 68
• Cc1c(C(=O)NCc2ccc(/N=N/c3ccc4c(c3)COC4)cc2)nn(-c2ccc(Cl)cc2Cl)c1-c1ccc(Cl)cc1 [16d] = 32
• Cc1cccc(/N=N/c2c(C)c(C(=O)NN3CCCCC3)nn2-c2ccc(Cl)cc2Cl)c1 = 65
• Cc1c(C(=O)NN2CCCCC2)nn(-c2ccc(Cl)cc2Cl)c1/N=N/c1cccc(Cl)c1Cl = 81
• Cc1c(C(=O)NCc2ccccc2/N=N/c2ccccc2)nn(-c2ccc(Cl)cc2Cl)c1-c1ccc(Cl)cc1 [16c] = 46

###

A collection of compounds and their measured [3H]CP55950 displ at 10 μM (CB2)
- experimental.system: hCB2 (Homo sapiens)
- assay.overview: Radioligand binding
- conditions.used: cis photoisomer (366 nm), hCB2-HEK membranes
measure: [3H]CP55950 displ at 10 μM (CB2)

• Cc1c(C(=O)NCc2cccc(/N=N/c3ccccc3)c2)nn(-c2ccc(Cl)cc2Cl)c1-c1ccc(Cl)cc1 [16b] = <10%
• Cc1c(C(=O)NCc2ccc(/N=N/c3ccccc3)cc2)nn(-c2ccc(Cl)cc2Cl)c1-c1ccc(Cl)cc1 [16a] = <10%
• Cc1cccc(/N=N/c2c(C)c(C(=O)NN3CCCCC3)nn2-c2ccc(Cl)cc2Cl)c1 [9e] = 46%

###

- experimental.system: rCB1 (Rattus norvegicus, UniProt P20272)
- assay.overview: Radioligand binding
- conditions.used: read-out: CB1 (Ki ± SD); cis photoisomer (irradiated with 366 nm UV light); rat brain membranes; 0.6 nM [3H]CP55940
pKi: −log10 of the molar value.
measure: pKi

* Cc1c(C(=O)NCc2cccc(/N=N/c3ccccc3)c2)nn(-c2ccc(Cl)cc2Cl)c1-c1ccc(Cl)cc1 [16b] | 6.51
* Cc1c(C(=O)NCc2ccccc2/N=N/c2ccccc2)nn(-c2ccc(Cl)cc2Cl)c1-c1ccc(Cl)cc1 [16c] | 6.85

###

- experimental.system: hCB2 (Homo sapiens, UniProt P34972)
- Sequence (P34972 whole entry): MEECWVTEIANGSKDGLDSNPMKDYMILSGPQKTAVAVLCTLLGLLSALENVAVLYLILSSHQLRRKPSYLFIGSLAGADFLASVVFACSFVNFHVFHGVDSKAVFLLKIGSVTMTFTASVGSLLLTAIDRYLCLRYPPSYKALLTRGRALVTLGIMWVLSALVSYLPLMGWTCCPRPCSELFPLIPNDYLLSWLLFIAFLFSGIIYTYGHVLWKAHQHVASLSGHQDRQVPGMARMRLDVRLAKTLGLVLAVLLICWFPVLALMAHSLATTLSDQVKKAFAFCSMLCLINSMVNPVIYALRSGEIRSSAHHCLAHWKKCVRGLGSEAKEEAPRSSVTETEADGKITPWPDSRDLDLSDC
- assay.overview: Radioligand binding
- conditions.used: cis photoisomer (366 nm), hCB2-HEK membranes
Think of 20% as a floor: if [3H]CP55950 displ at 10 μM (CB2) stands on it or above, it is MET; beneath it, NOT MET.

• Cc1c(C(=O)NCc2ccc(/N=N/c3ccc4c(c3)COC4)cc2)nn(-c2ccc(Cl)cc2Cl)c1-c1ccc(Cl)cc1 [16d] = NOT MET
• Cc1c(C(=O)NN2CCCCC2)nn(-c2ccc(Cl)cc2Cl)c1/N=N/c1ccc(Cl)cc1Cl [9c] = MET
• Cc1c(/N=N/c2ccccc2)nn(-c2ccc(Cl)cc2Cl)c1-c1ccc(Cl)cc1 [14a] = MET
• Cc1ccccc1/N=N/c1c(C)c(C(=O)NN2CCCCC2)nn1-c1ccc(Cl)cc1Cl [9d] = MET
• Cc1c(/N=N/c2cccc(Cl)c2Cl)nn(-c2ccc(Cl)cc2Cl)c1-c1ccc(Cl)cc1 [14b] = MET
• Cc1c(C(=O)NCc2ccccc2/N=N/c2ccccc2)nn(-c2ccc(Cl)cc2Cl)c1-c1ccc(Cl)cc1 [16c] = NOT MET
• Cc1c(C(=O)NN2CCCCC2)nn(-c2ccc(Cl)cc2Cl)c1/N=N/c1cccc(Cl)c1Cl [9b] = MET
• Cc1c(C(=O)NN2CCCCC2)nn(-c2ccc(Cl)cc2Cl)c1/N=N/c1ccccc1 [9a] = NOT MET

###

- experimental.system: UniProt:P20272
- assay.overview: Radioligand binding
- conditions.used: CB1 (Ki ± SD), cis photoisomer (irradiated with 366 nm UV light); rat brain membranes; 0.6 nM [3H]CP55940
pKi: −log10 of the molar value.
measure: pKi

- Cc1cccc(/N=N/c2c(C)c(C(=O)NN3CCCCC3)nn2-c2ccc(Cl)cc2Cl)c1: 6.17
- Cc1c(C(=O)NN2CCCCC2)nn(-c2ccc(Cl)cc2Cl)c1/N=N/c1ccc(Cl)cc1Cl: 6.45
- Cc1c(C(=O)NN2CCCCC2)nn(-c2ccc(Cl)cc2Cl)c1/N=N/c1cccc(Cl)c1Cl: 6.15
- Cc1ccccc1/N=N/c1c(C)c(C(=O)NN2CCCCC2)nn1-c1ccc(Cl)cc1Cl: 6.42
- Cc1c(/N=N/c2ccccc2)nn(-c2ccc(Cl)cc2Cl)c1-c1ccc(Cl)cc1 [14a]: 6.60
